- System: DMS 114 small cell lung
- Assay protocol: NCI tumour cell line growth inhibition, 48 h
Listing of entries alongside the reported TGI.
Quantity kind: TGI (µM)

• N#CC12CCC(O)C(CC1)C2=O (stereo unspecified) = 36
• COCC1N=C(c2ccc(OC)c(OCc3ccccc3)c2OC)O[C@H]1c1ccccc1 (stereo partly specified) = 44.9
• O=C1C(c2ccc(Cl)cc2)=[N+]([O-])c2ccccc21 = 14.3
• CCCOP1(=O)C=C(C)C(Cl)=C(C)C1 (stereo unspecified) = 46.3
• O=C(Nc1ccccc1)O/N=C1/CCCC/C1=C\c1ccccc1 = 24.8

----------
Listing of entries alongside the reported TGI.
- Test system: T-47D breast
- Assay protocol: NCI tumour cell line growth inhibition, 48 h
Quantity kind: TGI

* CC(=O)C(C(=N)C#N)C(=O)Nc1ccccc1 (stereo unspecified) | > 100 µM
* O=C1CC2(CCCc3sccc32)C(=O)N1 (stereo unspecified) | > 100 µM
* COP(=N[Si](C)(C)C)(OC)OC | > 100 µM
* CNc1nc2c(C)ccc3nc(N(C)C)nc-3c2n1C | > 10 µM
* O=C(Nc1ncc([N+](=O)[O-])s1)c1cccc([N+](=O)[O-])c1 | 12.9 µM
* O=C(Nc1cccc(NS(=O)(=O)c2ccc(F)cc2)c1)c1ccc(-c2ccccc2)cc1 | 7.88 µM
* O=S(=O)(O)c1cc(S(=O)(=O)O)c2c(N=Nc3ccccc3)c(O)ccc2c1 | > 100 µM
* COC1/C=C/C(C)C(C(C)C(OC)C(C)CCC(=O)C(C)C(CC(=O)O)OC)OC(=O)/C=C/C=C(\C)CC(OC)C(OC)C2=CC(=O)O[C@@H](C(C)C(OC)CC(OC)/C=C/C(C)C(O)C1)[C@H]2O (stereo partly specified) | 0.981 µM
* O=C(Oc1cccc(Nc2ncnc3ccccc23)c1)c1ccccc1Cl | > 100 µM
* CC(=O)N1c2ccccc2C2=NN=C(N(C)C)SC21 (stereo unspecified) | 14.9 µM
* CSC1=C(C)S/C(=C\c2ccc(/C=C3\SC(C)=C(SC)S3)cc2)S1 | > 100 µM
* CC1(C)C2CC1C(/C=N\OCC(=O)O)=CC2=O (stereo unspecified) | > 100 µM
* COC(=O)c1ccc(-c2nc3cc(F)c(F)cc3nc2C#N)cc1 | 32 µM
* Cc1ccc([N+](=O)[O-])cc1S(=O)(=O)Nc1ccc(C2=NOC(c3ccccc3)C2)cc1 (stereo unspecified) | 51.1 µM
* CCCCC1=C(C(=O)N2CCOCC2)C2(OCCO2)C1Cl (stereo unspecified) | > 100 µM
* N/C(=N\Nc1cccc(Cl)c1)c1cccnc1 | > 92.6 µM
* Clc1ccc(N2COOC3(OOC2)C2CC4CC(C2)CC3C4)cc1 | > 100 µM
* Cc1cc(Cl)ccc1NC(=O)/C(Cc1nc2ccc(C(=O)c3ccccc3)cc2[nH]c1=O)=N/NC(=O)c1ccncc1 | > 100 µM
* Clc1ccc(Nc2ccnc(NCCNc3ccnc4cc(Cl)ccc34)n2)cc1 | 3.05 µM
* COc1ccc2c(c1)nc1n2C(c2c(F)cccc2F)SC1 (stereo unspecified) | > 100 µM
* CCCCCCCCCCCCOCCCCCCCCC/C=C/c1ccc2c(c1)OCCOCCOCCOCCO2 | 48.2 µM

----------
- System: K-562 leukemia
- Assay protocol: NCI tumour cell line growth inhibition, 48 h
Listing of entries alongside the reported TGI.
Quantity kind: TGI (µM)

- NCCCn1c2c(c3ccccc3c1=O)C(=O)c1cc3c(cc1-2)OCO3: 4.23
- CN(C)CCCNC(=O)c1cc(NC(=O)c2cc(NC(=O)CCCN3c4ccccc4C=Cc4ccccc43)cn2C)cn1C: 4.97
- Cc1ccc(C2=[N+]([O-])c3ccccc3C2=O)cc1: 41

----------
- System: UACC-257 melanoma
- Assay protocol: NCI tumour cell line growth inhibition, 48 h
# TGI >= 20 µM gives satisfied, anything below gives not satisfied

* Cc1ccc2c(/C=C/C(=O)c3cc(CN4CCOCC4)c(O)c4nc(C)ccc34)cc(CN3CCOCC3)c(O)c2n1 | not satisfied
* CC(C)(C)c1cc(C(C)(C)C)c(P=C(Cl)Cl)c(C(C)(C)C)c1 (stereo not given) | satisfied
* COc1ccc(OC)c2sc(N3C(=O)/C(=C/c4ccc(N(C)C)cc4)N=C3c3ccccc3)nc12 | satisfied
* O=c1ccc(-c2ccc(-n3ccnc3)cc2)nn1CCO | satisfied
* CCCCC1=C(C(=O)N2CCOCC2)C2(OCCO2)C1Cl (stereo not given) | satisfied
* COc1c(O)cc2oc3cc(O)c(CC=C(C)C)c(O)c3c(=O)c2c1C/C=C(\C)CCC=C(C)C | not satisfied
* O=C(Nc1cccc(NS(=O)(=O)c2ccc(F)cc2)c1)c1ccc(-c2ccccc2)cc1 | not satisfied
* Nc1ccc(CCN2CCN(c3cccc(C(F)(F)F)c3)CC2)cc1 | satisfied
* Cc1cc(N(CCC#N)CCC#N)ccc1N=Nc1ccccc1[N+](=O)[O-] | satisfied
* Brc1nc2c3ccccc3ncn2c1Br | satisfied
* COc1ccc(/C=C(\C#N)n2nnc3cc(Cl)ccc32)cc1 | satisfied
* C(=C\c1ccccc1)/Cn1nc(-c2ccccc2)nc1-c1cnccn1 | satisfied
* c1ccc(Oc2c3ccccc3nc3ccccc23)cc1 | satisfied
* O=C1C(c2ccc(Cl)cc2)=[N+]([O-])c2ccccc21 | satisfied
* COC(=O)/N=[N+](\[O-])C(c1ccc(Cl)cc1)c1ccc(Cl)cc1 | satisfied
* CC1=C(C(=O)Nc2ccc(F)c(Cl)c2)C(c2cccc(O)c2)NC(=S)N1 (stereo not given) | satisfied
* O=C(O)C(Cc1ccccc1-c1ccccc1)C(=O)O | satisfied
* CC1(c2ccccc2)CC12C(=O)NC(=O)NC2=O (stereo not given) | satisfied
* COC(=O)/C=C1\SC(=Nc2ccc(C(F)(F)F)cc2)N(CCc2c[nH]c3ccccc23)C1=O | not satisfied
* COC(=O)[C@H](C)[C@H]1CC[C@@](C)([C@H]2CC3C(C)(C)[C@H]4CCC(C)=C[C@H]4C[C@@]3(C)O2)OO1 (stereo not given in full) | satisfied
* COC1=C(OC)C(=O)c2cc(SC)c(=O)c(SC)cc2C1=O | satisfied
* O=C(CSc1nc2ccc([N+](=O)[O-])cc2[nH]1)Nc1cccc(C(F)(F)F)c1 | not satisfied
* CC(C)C(=O)CC(Sc1ccc(N)cc1)c1ccccc1 (stereo not given) | satisfied
* CC(C)SC1SCC2C(=O)N(C)C3(CC3C)C(=O)OCC(NC(=O)c3nc4ccccc4cc3O)C(=O)NC(C)C(=O)N(C)C1C(=O)N(C)C1(CC1C)C(=O)OCC(NC(=O)c1nc3ccccc3cc1O)C(=O)NC(C)C(=O)N2C (stereo not given) | not satisfied
* CCN(Cc1ccc(F)cc1F)c1ccc(CO)c(Cl)c1 | not satisfied

----------
- Tested on: SK-MEL-28 melanoma
- Assay protocol: NCI tumour cell line growth inhibition, 48 h
Quantity kind: GI50

- Clc1ccc(N2COOC3(OOC2)C2CC4CC(C2)CC3C4)cc1: > 30.8 µM
- CS(=O)(=O)c1ccc(Oc2nccc(-c3c(-c4ccc(F)cc4)ncn3C3CCNCC3)n2)cc1: > 25 µM
- Cc1c(C(=O)CCl)c(=O)n(-c2ccccc2)n1C: 3.27 µM
- N.N.NCCCCN.O=C([O-])CC(=O)[O-].O=C([O-])CC(=O)[O-].[Pt+4].[Pt+4]: > 100 µM
- O=c1oc2ccccc2c(Cl)c1Cl: 2.68 µM
- Cc1ccc2c(/C=C/C(=O)c3cc(CN4CCOCC4)c(O)c4nc(C)ccc34)cc(CN3CCOCC3)c(O)c2n1: 1.08 µM
- CC1=C(C(=O)Nc2ccc(F)c(Cl)c2)C(c2cccc(O)c2)NC(=S)N1 (configuration not stated): > 50 µM
- Cn1cc(-c2nc(-c3c[nH]c4ncccc34)cs2)c2cc(Cl)ccc21: 7.43 µM
- COc1c(O)cc2oc3cc(O)c(CC=C(C)C)c(O)c3c(=O)c2c1C/C=C(\C)CCC=C(C)C: 5.4 µM
- COc1cc(/C=C2\CC(C)CC3C2=NN(c2ccccc2)C3c2cc(OC)c(OC)c(OC)c2)cc(OC)c1OC (configuration not stated): 11.2 µM
- COc1ccc(C(=O)c2cc(OC)c(OC)c(OC)c2)cc1/C=C/C(=O)c1ccc(O)cc1: 4.75 µM
- O=P(Oc1ccccc1)(Oc1ccccc1)C(O)c1ccccc1 (configuration not stated): 85.7 µM
- CC(C)(C)[Si](C)(C)OC1[C@@H](O[Si](C)(C)C(C)(C)C)[C@@H](CNC(=O)NC(=O)NC(=O)CI)O[C@H]1n1cnc2c(NC(=O)Nc3ccccc3)ncnc21 (some centres not stated): 9.69 µM
- O=C(Oc1cccc(Nc2ncnc3ccccc23)c1)c1ccccc1Cl: 48.7 µM
- O=C(Nc1ncc([N+](=O)[O-])s1)c1cccc([N+](=O)[O-])c1: 4.64 µM
- CCN(CC)c1ccc2[nH]c3c(C(N)=O)cc(=O)c(=O)c=3oc2c1: 3.76 µM
- C=C(CN1CCc2ccccc2C1)c1ccc(/C=C/C(=O)Nc2ccccc2N)cc1: 46.7 µM
